Quick list: pEC50 per entry.
System: primary human T-cells
Experiment: IL2 secretion measurements in CD3-stimulated T-cells
Assay type: cell-based
Conditions: Homo sapiens, T-cell; isomer A; CD3 antibody-stimulated T-cells, IL2 in supernatant after 24 hours; read-out: Tcell IL2 CD3 EC50
Experimental: As readouts for T-cell activation, IL2 secretion after 24 hours and proliferation after 5 days was measured. Increases in IL2 secretion and proliferation upon compound treatment were assessed as the % of the maximum of reference compound A1. […] Additional information: For the immunoassay, MicroAmp™ EnduraPlate™ Optical 384-Well plates are used. […] Raw data is extracted and IL-2 concentrations are calculated with the Thermo Fisher online app (apps.thermofisher.com/apps/proquantum). […]
pEC50: −log10 of the molar value.

[
  {
    "compound": "CC(C)(C#N)c1nnc(-c2cc3c(cc2F)C(F)(F)C[C@@H](N)C(=O)N3Cc2ccc(-c3ccc(C(F)F)cn3)cc2)o1 (single isomer, unassigned) [Example 40]",
    "target_entity": "primary human T-cells",
    "inequality_symbol": "<",
    "pEC50": 5.00
  },
  {
    "compound": "COc1ccc(-c2ccc(CN3C(=O)[C@H](N)CC(F)(F)c4cc(F)c(-c5nnc(C(C)(C)S(C)(=O)=O)o5)cc43)cc2)nc1 (single isomer, unassigned) [Example 39]",
    "target_entity": "primary human T-cells",
    "inequality_symbol": "<",
    "pEC50": 5.00
  },
  {
    "compound": "COC(=O)N1CC2CC(c3nnc(-c4cc5c(cc4F)C(F)(F)C[C@@H](N)C(=O)N5Cc4ccc(-c5ccc(C(F)(F)F)cn5)cc4)o3)(C2)C1 (single isomer, unassigned) [Example 35]",
    "target_entity": "primary human T-cells",
    "inequality_symbol": "=",
    "pEC50": 6.66
  },
  {
    "compound": "CC(C)(C#N)c1nnc(-c2cc3c(cc2F)C(F)(F)C[C@@H](N)C(=O)N3Cc2ccc(-n3nnc(C(F)(F)F)n3)cc2)o1 (single isomer, unassigned) [Example 20]",
    "target_entity": "primary human T-cells",
    "inequality_symbol": "=",
    "pEC50": 5.99
  },
  {
    "compound": "N[C@@H]1CC(F)(F)c2cc(F)c(-c3nnc(N4CCCC4)o3)cc2N(Cc2ccc(-n3cnc(C(F)(F)F)n3)cc2)C1=O (single isomer, unassigned) [Example 21]",
    "target_entity": "primary human T-cells",
    "inequality_symbol": "=",
    "pEC50": 5.11
  },
  {
    "compound": "N[C@@H]1CC(F)(F)c2cc(F)c(-c3nnc(N4CCOC5(CC5)C4)o3)cc2N(Cc2ccc(-c3noc(C(F)(F)F)n3)cc2)C1=O (single isomer, unassigned) [Example 17]",
    "target_entity": "primary human T-cells",
    "inequality_symbol": "=",
    "pEC50": 5.42
  }
]

====

test system: primary human T-cells; test: T-cell proliferation assay (CellTiter-Glo); assay type: cell-based; conditions: Homo sapiens, T-cell, 120 h; isomer A; CD3 condition, 5 days; 20 μM reference compound A1 = 100%, DMSO neutral control; read-out: Emax proliferation (% activation)
recorded_metric: Emax (%)

[
  {
    "compound": "CC(C)(c1nnc(-c2cc3c(cc2F)C(F)(F)C[C@@H](N)C(=O)N3Cc2ccc(-c3noc(C(F)(F)F)n3)cc2)o1)S(C)(=O)=O (single isomer, unassigned)",
    "measured_value": 241
  },
  {
    "compound": "CC(C)(C#N)c1nnc(-c2cc3c(cc2F)C(F)(F)C[C@@H](N)C(=O)N3Cc2ccc(-c3ccc(OC(F)(F)F)cn3)cc2)o1 (single isomer, unassigned)",
    "measured_value": 129
  },
  {
    "compound": "CC(C)(c1nnc(-c2cc3c(cc2F)C(F)(F)CC(N)C(=O)N3Cc2ccc(Oc3ccccc3)cc2)o1)S(C)(=O)=O (racemic)",
    "measured_value": 249
  },
  {
    "compound": "CC(C)(c1nnc(-c2cc3c(cc2F)C(F)(F)C[C@@H](N)C(=O)N3Cc2ccc(-c3ccc(C(F)(F)F)cn3)cc2)o1)S(C)(=O)=O (single isomer, unassigned)",
    "measured_value": 86
  },
  {
    "compound": "CC(C)(C#N)c1nnc(-c2cc3c(cc2F)C(F)(F)C[C@@H](N)C(=O)N3Cc2ccc(-n3cc(C(F)(F)F)cn3)nc2)o1 (single isomer, unassigned)",
    "measured_value": 87
  },
  {
    "compound": "CCN1CC(c2nnc(-c3cc4c(cc3F)C(F)(F)C[C@@H](N)C(=O)N4Cc3ccc(OC(F)(F)F)cc3)o2)CC(F)(F)C1 (single isomer, unassigned)",
    "measured_value": 79
  },
  {
    "compound": "CC(C)(C#N)c1nnc(-c2cc3c(cc2F)C(F)(F)C[C@@H](N)C(=O)N3Cc2ccc(-c3ncc(C(F)(F)F)cc3F)cc2)o1 (single isomer, unassigned)",
    "measured_value": 85
  }
]
